# assay-protocol: Components of the Cytosolic LPS Sensing Pathway: Gene Identification via Genome-wide siRNA Screen
# measurement-setup: RAW264.7 macrophages, IL-1a HTRF, actives lie on both sides, screened at 100 nM (by protocol), cells primed 5 h with Pam3CSK4 first
Screen size: about 53,000 sequences; about 3,700 (7%) were called active. The entries come from a sample that favours actives as a whole.
# Fulfilled = z-score below -0.9 (exclusive); Not fulfilled = z-score at/above -0.9

Does the reported z-score of the following sequence sit strictly below -0.9? AACACGGCUCUAGCCAAUCTT against Ypel4
Fulfilled

Does the reported z-score of the following sequence sit strictly below -0.9? GGUGACUUGUAAAGAUUUUTT against Dstn
Not fulfilled

Does the reported z-score of the following sequence sit strictly below -0.9? GCACUGUGACGAUACAAGATT against Asb1
Fulfilled

Does the reported z-score of the following sequence sit strictly below -0.9? GGUUCUGGAUUUCUGUUUUTT against Phf24
Fulfilled

Does the reported z-score of the following sequence sit strictly below -0.9? CCCUGAUGACAGAAGAAUCTT against Tyms
Not fulfilled

Does the reported z-score of the following sequence sit strictly below -0.9? GGAAGCAGAAGCUAAAGUGTT against Ubap1
Not fulfilled

Does the reported z-score of the following sequence sit strictly below -0.9? GCAUAGAUUGAUGGCUAAUTT against Chd8
Not fulfilled

Does the reported z-score of the following sequence sit strictly below -0.9? GAGUGGUUUCUAAUUCGUATT against A830031A19Rik
Not fulfilled

Does the reported z-score of the following sequence sit strictly below -0.9? GGACUUCUAGAGAACUUGUTT against 2900092C05Rik
Fulfilled

Does the reported z-score of the following sequence sit strictly below -0.9? GGCAGGUUUGGUAACCAGATT against Fut1
Not fulfilled

Does the reported z-score of the following sequence sit strictly below -0.9? GCUGGCGGAGCAAACUCAATT against Foxd3
Not fulfilled

Does the reported z-score of the following sequence sit strictly below -0.9? GCAUGUCGUCUGAGAAAGUTT against Pgr
Not fulfilled

Does the reported z-score of the following sequence sit strictly below -0.9? CGCGUACGACUUCUACAAATT against Hmgcs2
Not fulfilled

Does the reported z-score of the following sequence sit strictly below -0.9? GGUGACACAGUACAAGAAGTT against Rpl36a
Not fulfilled

Does the reported z-score of the following sequence sit strictly below -0.9? GCUGAUCAGAGACCAUUACTT against Cmss1
Fulfilled

Does the reported z-score of the following sequence sit strictly below -0.9? GGAUGCUGAAGUAAUAGUGTT against Tbc1d15
Not fulfilled

Does the reported z-score of the following sequence sit strictly below -0.9? GCUCAUGUAUGUGAAUUUGTT against Ptx3
Fulfilled

Does the reported z-score of the following sequence sit strictly below -0.9? GGAGAAGUGGUAGAAACUGTT against Brd8
Fulfilled

Does the reported z-score of the following sequence sit strictly below -0.9? GCUCUGUUCACCUACCCGATT against Anapc16
Not fulfilled

Does the reported z-score of the following sequence sit strictly below -0.9? GGAGUAACAACACAACAUUTT against Mab21l1
Not fulfilled

Does the reported z-score of the following sequence sit strictly below -0.9? CGAGCAUGCUGAAAAGACCTT against Steap1
Not fulfilled

Does the reported z-score of the following sequence sit strictly below -0.9? GGAGUAUGUCCAUUGUCACTT against Vmn1r230
Fulfilled

Does the reported z-score of the following sequence sit strictly below -0.9? GGAGUUUUCAUGCCUACAATT against Odam
Not fulfilled

Does the reported z-score of the following sequence sit strictly below -0.9? GCAGGUGAGAAAGUAUAAGTT against Mro
Fulfilled
